Experiment: Cytotoxicity against human HuH5.2 cells after 72 hrs by MTS assay
Type: cell-based, Huh-5-2
Recorded CC50 at 72 h by entry
property label: CC50 at 72 h

                                  smiles_str  property_label  measured_result
 0  CC(=O)c1cc(C(=O)O)c2sc3ccc(OC4CCCCC4)cc3n2c1=O    CC50 at 72 h         > 100 µM
 1  COc1ccc2c(c1)-n1c(c(C(=O)O)cc(-c3ccccc3)c1=O)S2(=O)=O    CC50 at 72 h         > 100 µM
 2  O=C(O)c1ccc(=O)n2c1sc1ccc(OC3CCCCC3)cc12    CC50 at 72 h         > 100 µM
 3   O=C(O)c1cc(C2CCCCC2)c(=O)n2c1sc1ccccc12    CC50 at 72 h         > 100 µM
 4  O=C(O)c1cc(C2CCCCC2)c(=O)n2c1sc1ccc(OC3CCCCC3)cc12    CC50 at 72 h        > 56.5 µM
 5  O=C(O)c1cc(-c2ccccc2)c(=O)n2c1sc1ccc(OC3CCCCC3)cc12    CC50 at 72 h         > 100 µM
 6  COc1ccc2sc3c(C(=O)O)cc(-c4ccccc4)c(=O)n3c2c1    CC50 at 72 h          51.8 µM
 7  CC(C)CCOc1ccc2sc3c(C(=O)O)cc(-c4ccccc4)c(=O)n3c2c1    CC50 at 72 h            55 µM
 8  O=C(O)c1cc(-c2ccccc2)c(=O)n2c1S(=O)(=O)c1ccc(OC3CCCCC3)cc1-2    CC50 at 72 h         > 100 µM
 9  O=C(O)c1cc(-c2ccccc2)c(=O)n2c1sc1ccc(F)cc12    CC50 at 72 h         > 100 µM
10  O=C(O)c1cc(-c2ccccc2)c(=O)n2c1S(=O)(=O)c1ccc(F)cc1-2    CC50 at 72 h         > 100 µM

###

System: Hepatitis C virus
Assay: Inhibition of HCV genotype 1b recombinant NS5B Cdelta21 polymerase expressed in Escherichia coli assessed as [3H]UTP incorporation into RNA/RNA homopolymeric template (rA)40/(rU)20 after 40 mins by liquid scintillation counting
Set-up: species or system Hepatitis C virus subtype 1b
pIC50: −log10 of the molar value.
Recorded pIC50 by entry
property label: pIC50

>>> df
                                    compound  measured_result
 0  CC(C)CCOc1ccc2sc3c(C(=O)O)cc(-c4ccccc4)c(=O)n3c2c1           < 4.40
 1  CC(=O)c1cc(C(=O)O)c2sc3ccc(OC4CCCCC4)cc3n2c1=O           < 4.40
 2  COc1ccc2c(c1)-n1c(c(C(=O)O)cc(-c3ccccc3)c1=O)S2(=O)=O           < 4.40
 3  O=C(O)c1cc(-c2ccccc2)c(=O)n2c1S(=O)(=O)c1ccc(OC3CCCCC3)cc1-2             4.72
 4   O=C(O)c1cc(C2CCCCC2)c(=O)n2c1sc1ccccc12           < 4.40
 5  O=C(O)c1cc(-c2ccccc2)c(=O)n2c1sc1ccc(F)cc12           < 4.40
 6  O=C(O)c1cc(-c2ccccc2)c(=O)n2c1S(=O)(=O)c1ccc(F)cc1-2           < 4.40
 7  COc1ccc2sc3c(C(=O)O)cc(-c4ccccc4)c(=O)n3c2c1           < 4.40
 8  O=C(O)c1ccc(=O)n2c1sc1ccc(OC3CCCCC3)cc12           < 4.40
 9  O=C(O)c1cc(-c2ccccc2)c(=O)n2c1sc1ccc(OC3CCCCC3)cc12             4.96
10  O=C(O)c1cc(C2CCCCC2)c(=O)n2c1sc1ccc(OC3CCCCC3)cc12             4.64
11  O=C(O)C1=CC(=C(c2ccc(O)c(C(=O)O)c2)c2ccc(O)c(C(=O)O)c2)C=CC1=O [AURINTRICARBOXYLIC ACID]             4.82

###

Tested on: Hepatitis C virus
Experiment: Antiviral activity against HCV genotype 1b infected in human HuH5.2 cells assessed as inhibition of […] after 72 hrs by luciferase reporter gene assay
Type: functional, organism-based, Hepacivirus hominis
Conditions: Huh-5-2, 72 h
Recorded EC50 by entry
property label: EC50 (µM)

>>> print(df.to_string())
                                  smiles_str      target_system  qualifying_sign  measured_result
 0  CC(=O)c1cc(C(=O)O)c2sc3ccc(OC4CCCCC4)cc3n2c1=O  Hepatitis C virus                >              100
 1  CC(C)CCOc1ccc2sc3c(C(=O)O)cc(-c4ccccc4)c(=O)n3c2c1  Hepatitis C virus                =               54
 2  COc1ccc2sc3c(C(=O)O)cc(-c4ccccc4)c(=O)n3c2c1  Hepatitis C virus                =             51.2
 3  COc1ccc2c(c1)-n1c(c(C(=O)O)cc(-c3ccccc3)c1=O)S2(=O)=O  Hepatitis C virus                =             89.7
 4   O=C(O)c1cc(C2CCCCC2)c(=O)n2c1sc1ccccc12  Hepatitis C virus                =             53.5
 5  O=C(O)c1cc(C2CCCCC2)c(=O)n2c1sc1ccc(OC3CCCCC3)cc12  Hepatitis C virus                >             56.5
 6  O=C(O)c1cc(-c2ccccc2)c(=O)n2c1sc1ccc(OC3CCCCC3)cc12  Hepatitis C virus                >              100
 7  O=C(O)c1cc(-c2ccccc2)c(=O)n2c1S(=O)(=O)c1ccc(OC3CCCCC3)cc1-2  Hepatitis C virus                =             55.8
 8  O=C(O)c1cc(-c2ccccc2)c(=O)n2c1sc1ccc(F)cc12  Hepatitis C virus                >              100
 9  O=C(O)c1cc(-c2ccccc2)c(=O)n2c1S(=O)(=O)c1ccc(F)cc1-2  Hepatitis C virus                =               66
10  O=C(O)c1ccc(=O)n2c1sc1ccc(OC3CCCCC3)cc12  Hepatitis C virus                >              100

Attribution: ChEMBL document CHEMBL1926514
